# Test system: human IKr (hERG K+ channels) (Homo sapiens, UniProt Q12809)
# Sequence (Q12809 whole entry): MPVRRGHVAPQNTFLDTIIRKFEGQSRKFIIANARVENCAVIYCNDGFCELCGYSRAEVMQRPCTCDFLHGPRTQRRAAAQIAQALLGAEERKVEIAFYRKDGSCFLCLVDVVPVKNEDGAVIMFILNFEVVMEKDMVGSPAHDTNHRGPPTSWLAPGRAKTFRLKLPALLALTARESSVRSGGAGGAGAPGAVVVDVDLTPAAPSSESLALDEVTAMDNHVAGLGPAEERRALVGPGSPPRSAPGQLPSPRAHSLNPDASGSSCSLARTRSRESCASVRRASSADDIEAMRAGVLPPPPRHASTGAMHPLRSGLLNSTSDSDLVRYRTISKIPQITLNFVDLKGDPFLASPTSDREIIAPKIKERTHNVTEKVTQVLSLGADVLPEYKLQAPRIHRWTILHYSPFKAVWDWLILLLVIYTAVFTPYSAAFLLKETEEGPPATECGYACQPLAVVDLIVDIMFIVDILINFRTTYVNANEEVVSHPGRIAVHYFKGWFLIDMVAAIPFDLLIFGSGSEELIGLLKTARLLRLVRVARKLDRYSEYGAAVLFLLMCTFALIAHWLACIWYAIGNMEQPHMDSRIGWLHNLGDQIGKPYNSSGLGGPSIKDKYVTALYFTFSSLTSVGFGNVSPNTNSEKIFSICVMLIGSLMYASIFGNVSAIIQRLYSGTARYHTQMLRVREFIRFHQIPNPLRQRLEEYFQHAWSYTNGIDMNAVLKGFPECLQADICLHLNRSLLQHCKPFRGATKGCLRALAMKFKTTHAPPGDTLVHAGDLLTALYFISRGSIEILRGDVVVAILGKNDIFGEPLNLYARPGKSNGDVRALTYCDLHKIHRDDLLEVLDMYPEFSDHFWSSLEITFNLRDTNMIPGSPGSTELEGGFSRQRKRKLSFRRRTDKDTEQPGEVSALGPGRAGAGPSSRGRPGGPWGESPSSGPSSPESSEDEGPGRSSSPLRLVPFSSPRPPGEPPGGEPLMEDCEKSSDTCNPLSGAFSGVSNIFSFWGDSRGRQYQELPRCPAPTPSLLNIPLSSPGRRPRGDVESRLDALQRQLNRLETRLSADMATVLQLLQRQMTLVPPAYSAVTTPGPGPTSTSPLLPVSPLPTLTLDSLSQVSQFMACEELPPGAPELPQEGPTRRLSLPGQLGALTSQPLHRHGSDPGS
# Assay method text: Inhibition of IKr activity, whole cell patch-clamp in HEK-293 cells expressing hERG K+ channels
# Test context: data normalized to % control tail IKr
IC50 listing for selected compounds.

Lab entry: human IKr (hERG K+ channels) (Homo sapiens, UniProt Q12809) assay, compound `COc1cc(N)c(Cl)cc1C(=O)N[C@@H]1CCN(CCN(C)Cc2ccc(C(=O)OCCN3CCCC3)cc2)C[C@@H]1OC` , IC50 = > 25 µM

Measured on human IKr (hERG K+ channels) (Homo sapiens, UniProt Q12809), `COc1cc(N)c(Cl)cc1C(=O)N[C@@H]1CCN(CCCc2ccc(C(=O)O)cc2)C[C@@H]1OC` has a documented IC50 of > 25 µM

Record `COc1cc(N)c(Cl)cc1C(=O)N[C@@H]1CCN(CCNCc2ccc(C(=O)OC3CCNCC3)cc2)C[C@@H]1OC` / human IKr (hERG K+ channels) (Homo sapiens, UniProt Q12809), IC50 recorded as > 25 µM

Let me check: `COc1cc(N)c(Cl)cc1C(=O)N[C@@H]1CCN(CC(=O)Nc2ccc(CC(=O)OCCCO)cc2)C[C@@H]1OC` , system human IKr (hERG K+ channels) (Homo sapiens, UniProt Q12809), measured IC50 is 10 to 25 µM

Tested system human IKr (hERG K+ channels) (Homo sapiens, UniProt Q12809); IC50 recorded for `COc1cc(N)c(Cl)cc1C(=O)N[C@@H]1CCN(CCNC(=O)c2ccc(C(=O)O)cc2)C[C@@H]1OC` was > 25 µM

Summary: `COc1cc(N)c(Cl)cc1C(=O)N[C@@H]1CCN(CC(=O)Nc2ccc(CC(=O)OC3CCN(C)CC3)cc2)C[C@@H]1OC` , human IKr (hERG K+ channels) (Homo sapiens, UniProt Q12809), IC50 = > 25 µM

The compound `COc1cc(N)c(Cl)cc1C(=O)N[C@@H]1CCN(CC(=O)Nc2ccc(C(=O)OCCO)cc2)C[C@@H]1OC` , tested on human IKr (hERG K+ channels) (Homo sapiens, UniProt Q12809), showed IC50 of > 25 µM

The recorded IC50 with human IKr (hERG K+ channels) (Homo sapiens, UniProt Q12809) for `COc1cc(N)c(Cl)cc1C(=O)N[C@@H]1CCN(CC(=O)Nc2ccc(CC(=O)O)cc2)C[C@@H]1OC` was > 25 µM

// assay human IKr (hERG K+ channels) (Homo sapiens, UniProt Q12809), entry `COc1cc(N)c(Cl)cc1C(=O)N[C@@H]1CCN(CC(=O)Nc2ccc(C(=O)OCC(N)=O)cc2)C[C@@H]1OC` , IC50 value = 5 to 10 µM
